- Test Target: human muscarinic M4 receptor (Homo sapiens)
- Construct: expressed in transfected cells
- Sequence (P08173 whole entry): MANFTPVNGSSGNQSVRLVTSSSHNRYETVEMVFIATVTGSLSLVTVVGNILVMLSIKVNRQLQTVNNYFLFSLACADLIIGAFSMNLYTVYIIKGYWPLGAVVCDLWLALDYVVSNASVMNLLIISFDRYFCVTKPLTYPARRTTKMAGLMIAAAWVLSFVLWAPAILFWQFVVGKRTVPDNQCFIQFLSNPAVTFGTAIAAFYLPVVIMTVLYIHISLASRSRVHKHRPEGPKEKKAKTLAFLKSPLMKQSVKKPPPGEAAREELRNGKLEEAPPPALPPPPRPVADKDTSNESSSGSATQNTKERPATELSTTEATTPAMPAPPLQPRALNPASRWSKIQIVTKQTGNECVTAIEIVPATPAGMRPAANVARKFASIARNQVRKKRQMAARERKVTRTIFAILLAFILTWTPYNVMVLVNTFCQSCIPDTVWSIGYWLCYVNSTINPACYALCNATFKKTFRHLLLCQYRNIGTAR
- Measurement Description: Alphascreen Surefire phospho-ERK1/2 functional assay, M4
- Type: cell-based
- Condition Label: CHO, read-out: % Emax cf. ACh, M4
- Protocol: ERK1/2 phosphorylation is a downstream consequence of both Gq/11 and Gi/o protein coupled receptor activation, making it highly suitable for the assessment of M1, M3 (Gq/11 coupled) and M2, M4 receptors (Gi/o coupled), rather than using different assay formats for different receptor subtypes. CHO cells stably expressing the human muscarinic M1, M2, M3 or M4 receptor were plated (25K/well) onto 96-well tissue culture plates in MEM-alpha+10% dialysed FBS. […]
Quantity Name: Emax (%)

{"columns": ["Compound", "Quantity Unit", "Numeric Readout"],
 "data": [
  ["CCOC(=O)N1C2CCC1CC(N1CC(OC(=O)N3CCCCCC3)C1)C2 (mixture of isomers) [Example 5-1 Isomer mixture]", "%", 39],
  ["CCOC(=O)N1C2CCC1CC(N1CC(CC(=O)N(CC)CC)C1)C2 (single isomer, unassigned) [Example 1-1 Isomer 2]", "%", 85],
  ["CCOC(=O)N1C2CCCC1CC(N1CC(CC(=O)N3CCCCC3)C1)C2 (single isomer, unassigned) [Example 3-3 Isomer 1]", "%", 55],
  ["CCOC(=O)N1C2COCC1CC(N1CC(OC(=O)N3CCCCCC3)C1)C2 (single isomer, unassigned) [Example 8-1 Isomer 1]", "%", 43],
  ["CCOC(=O)N1C2CCC1CC(N1CC(OC(=O)N3CCCOCC3)C1)C2 (mixture of isomers) [Example 5-2 Isomer mixture]", "%", 19]
]}
